B1: tRNA (parent)
chain: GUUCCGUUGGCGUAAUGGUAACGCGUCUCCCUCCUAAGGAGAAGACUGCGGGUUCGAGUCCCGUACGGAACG

Variants of: B1
assay comment: yeast fitness relative to wild type (ratio to wild type); higher = fitter; tRNA-Arg(CCU), competitive growth, 37 C, YPD
Variants at the floor of the assay were thinned out.
attribute measured: yeast fitness

mut="C4U C24G C49U C60U C61A" attribute_measured="yeast fitness" reported_value=0.58

stdin: What value of yeast fitness has been recorded for this entry: A15G A20U C33A A36C A42U
stdout: ≤ 0.5

stdin: And G9A C31U C49U A69C ?
stdout: ≤ 0.5

stdin: And G10A U13A C29U C49G ?
stdout: ≤ 0.5

stdin: And G25A C34U A43U ?
stdout: ≤ 0.5

stdin: And C11A A20U U47C C60G ?
stdout: ≤ 0.5

stdin: And A14G G51A U54C ?
stdout: ≤ 0.5

stdin: And C27A C31U A43G C61U A65C ?
stdout: 0.501

stdin: And A15G U19A U28A ?
stdout: ≤ 0.5

stdin: And G17C G25A U32A A43G A57U ?
stdout: 0.546

stdin: And C24G G38C C62A ?
stdout: 0.852
